- Test system: mouse p16Ink4a+/- lung fibroblasts (INKBRITE, bleomycin-injured)
- EXPERIMENT SUMMARY: percentage of GFP+ (p16Ink4a+) fibroblasts among all cells in well; higher = less depletion of p16Ink4a+ cells, active = 20 or less
- REPORTED CONDITIONS: 1 µM; 3 days
The whole screen tested about 1,800 compounds, of which about 50 (3%) showed activity. The sample as a whole holds a higher share of actives than the screen did.
Classes used: true (1) = active, false (0) = inactive

compound=O=C(Nc1ccccc1Br)N[C@@H]1CCN(c2ccc(C(F)(F)F)cn2)C1 classification="false (0)"
compound=Cc1ccc(=O)n(-c2ccccc2)c1 classification="false (0)"
compound=CNC(=O)c1c(F)cccc1Nc1nc(Nc2cc3c(cc2OC)CCN3C(=O)CN(C)C)nc2[nH]ccc12 classification="false (0)"
compound="COC(=O)C1=C(C)N=C(C)/C(=C(/O)OC)C1c1ccccc1[N+](=O)[O-] (configuration not stated)" classification="false (0)"
compound=CCCc1cc(C)nc(O)c1CNC(=O)c1cc(-c2ccc(N3CCN(C(C)C)CC3)nc2)cc2c1cnn2C(C)C classification="false (0)"
compound="OCC(O)CN1CCN(c2ccccc2)CC1 (configuration not stated)" classification="false (0)"
compound=CC(C)(C)c1cnc(CSc2cnc(NC(=O)C3CCNCC3)s2)o1 classification="false (0)"
compound="COc1cc2nc(N3CCN(C(=O)C4COc5ccccc5O4)CC3)nc(N)c2cc1OC (configuration not stated)" classification="false (0)"
compound=Cc1ccc(C(=O)Nc2ccc(CN3CCN(C)CC3)c(C(F)(F)F)c2)cc1C#Cc1cnc2[nH]ncc2c1 classification="true (1)"
compound=Cc1ccc(NC(=O)c2ccc(CN3CCN(C)CC3)cc2)cc1Nc1nc(-c2cccnc2)cs1 classification="false (0)"
compound=Cc1ccc([N+](=O)[O-])cc1S(=O)(=O)N(C)/N=C/c1cnc2ccc(Br)cn12 classification="true (1)"
compound=CCC(CC)CC1(C(=O)Nc2ccccc2SC(=O)C(C)C)CCCCC1 classification="false (0)"
